- RUN DESCRIPTION: Particle size distribution by dynamic light scattering (Malvern Mastersizer 2000)
- Format: physicochemical
- REPORTED CONDITIONS: dynamic light scattering
EXPERIMENTAL READOUT: particle size D(0.99) (microns)
Report the figure in microns without appending any unit label.

[Q] Which particle size D(0.99) reading was recorded for the compound CCC(=O)O[C@]1(C(=O)SCF)[C@H](C)C[C@H]2[C@@H]3C[C@H](F)C4=CC(=O)C=C[C@]4(C)[C@@]3(F)[C@@H](O)C[C@@]21C [Example 13, fluticasone propionate] ?
[A] 6.37

Next:
[Q] May I ask what particle size D(0.99) has been recorded for CCC(=O)O[C@]1(C(=O)SCF)[C@H](C)C[C@H]2[C@@H]3C[C@H](F)C4=CC(=O)C=C[C@]4(C)[C@@]3(F)[C@@H](O)C[C@@]21C [Example 16, fluticasone propionate] ?
[A] 12.10

[Q] Query CCC(=O)O[C@]1(C(=O)SCF)[C@H](C)C[C@H]2[C@@H]3C[C@H](F)C4=CC(=O)C=C[C@]4(C)[C@@]3(F)[C@@H](O)C[C@@]21C [Example 14, fluticasone propionate] next
[A] 7.32

[Q] Consider next the compound CCC(=O)O[C@]1(C(=O)SCF)[C@H](C)C[C@H]2[C@@H]3C[C@H](F)C4=CC(=O)C=C[C@]4(C)[C@@]3(F)[C@@H](O)C[C@@]21C [Example 15, fluticasone propionate] in the same way.
[A] 11.67

----------
- RUN DESCRIPTION: Particle size distribution by dynamic light scattering (Malvern Mastersizer 2000)
- Format: physicochemical
- REPORTED CONDITIONS: dynamic light scattering
EXPERIMENTAL READOUT: particle size D(0.90) (microns)
# number only, unit microns dropped from output

For orientation, consider the following solved cases.
[Q] What does the data say about its particle size D(0.90)? Entry: CCC(=O)O[C@]1(C(=O)SCF)[C@H](C)C[C@H]2[C@@H]3C[C@H](F)C4=CC(=O)C=C[C@]4(C)[C@@]3(F)[C@@H](O)C[C@@]21C [Example 14, fluticasone propionate]
[A] 4.36

[Q] Repeat for the following molecule: CCC(=O)O[C@]1(C(=O)SCF)[C@H](C)C[C@H]2[C@@H]3C[C@H](F)C4=CC(=O)C=C[C@]4(C)[C@@]3(F)[C@@H](O)C[C@@]21C [Example 13, fluticasone propionate]
[A] 4.23

[Q] Continue with CCC(=O)O[C@]1(C(=O)SCF)[C@H](C)C[C@H]2[C@@H]3C[C@H](F)C4=CC(=O)C=C[C@]4(C)[C@@]3(F)[C@@H](O)C[C@@]21C [Example 16, fluticasone propionate]
[A] 8.40

Please examine the following record next.
[Q] GET /values?readout=particle size D(0.90)&item= CCC(=O)O[C@]1(C(=O)SCF)[C@H](C)C[C@H]2[C@@H]3C[C@H](F)C4=CC(=O)C=C[C@]4(C)[C@@]3(F)[C@@H](O)C[C@@]21C [Example 15, fluticasone propionate]
[A] 5.95

----------
- RUN DESCRIPTION: Particle size distribution by dynamic light scattering (Malvern Mastersizer 2000)
- Type: physicochemical
- REPORTED CONDITIONS: dynamic light scattering
EXPERIMENTAL READOUT: particle size D(0.80) (microns)
Field: numeric (microns). Do not append units.

Example results:
[Q] For the molecule CCC(=O)O[C@]1(C(=O)SCF)[C@H](C)C[C@H]2[C@@H]3C[C@H](F)C4=CC(=O)C=C[C@]4(C)[C@@]3(F)[C@@H](O)C[C@@]21C [Example 13, fluticasone propionate] , what particle size D(0.80) is on record?
[A] 3.43

[Q] CCC(=O)O[C@]1(C(=O)SCF)[C@H](C)C[C@H]2[C@@H]3C[C@H](F)C4=CC(=O)C=C[C@]4(C)[C@@]3(F)[C@@H](O)C[C@@]21C [Example 16, fluticasone propionate] , same question.
[A] 6.70

[Q] Subsequent entry: CCC(=O)O[C@]1(C(=O)SCF)[C@H](C)C[C@H]2[C@@H]3C[C@H](F)C4=CC(=O)C=C[C@]4(C)[C@@]3(F)[C@@H](O)C[C@@]21C [Example 14, fluticasone propionate]
[A] 3.44

Could you now look at the following molecule, please?
[Q] // particle size D(0.80) lookup, key: CCC(=O)O[C@]1(C(=O)SCF)[C@H](C)C[C@H]2[C@@H]3C[C@H](F)C4=CC(=O)C=C[C@]4(C)[C@@]3(F)[C@@H](O)C[C@@]21C [Example 15, fluticasone propionate]
[A] 4.51
